# assay text: self-splicing fitness, log relative to wild type (ln ratio); higher = more splicing; Tetrahymena group I intron in knt gene, E. coli kanamycin selection, DiMSum; sequences stand for … in CUCUCU…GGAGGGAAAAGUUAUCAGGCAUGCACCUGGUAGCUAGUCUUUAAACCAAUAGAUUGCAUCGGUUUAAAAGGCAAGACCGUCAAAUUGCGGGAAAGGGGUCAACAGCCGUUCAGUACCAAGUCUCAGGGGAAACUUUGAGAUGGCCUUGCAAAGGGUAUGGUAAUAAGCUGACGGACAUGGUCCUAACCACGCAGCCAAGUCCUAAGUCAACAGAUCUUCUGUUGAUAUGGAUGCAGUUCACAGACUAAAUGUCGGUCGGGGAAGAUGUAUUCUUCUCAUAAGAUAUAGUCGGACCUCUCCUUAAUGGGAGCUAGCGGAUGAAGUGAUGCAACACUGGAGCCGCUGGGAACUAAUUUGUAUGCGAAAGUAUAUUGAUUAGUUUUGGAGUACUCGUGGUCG;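 also: selection with 25 µg/mL kanamycin versus none on LB agar overnight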
# setup conditions: 30 °C
measure name: self-splicing fitness (ln)
One number for each entry.

# count of solved cases: 8
GGUAAGCAAUAUUACGCUUU :: -1.88
CAGGAGCAAUAUUACGUAAU :: -3.99
AUACAGCAAUAUUACGUUCU :: 0.212
GGAGAGCAAUAUUACGGCUU :: -0.815
GAUUAGCAAUAUUACGUGUU :: -2.85
CGCUAGCAAUAUUACGCCCG :: -2.1
UUCGAGCAAUAUUACGUCUU :: -2.89
GGCAAGCAAUAUUACGUGUG :: -0.694

Give self-splicing fitness (ln) for all sequences that follow.
1. GAUCAGCAAUAUUACGUACC
2. CUGAAGCAAUAUUACGGGAC

## Result
1: -0.223; 2: -0.993

Give self-splicing fitness (ln) for all sequences that follow.
1. GCCUAGCAAUAUUACGCAAG
2. UGUUAGCAAUAUUACGGGAA
3. AGAGAGCAAUAUUACGACGC
4. ACAUAGCAAUAUUACGCGUA
5. UCGGAGCAAUAUUACGAGUU

## Result
1: -3.71; 2: -1.84; 3: -2.54; 4: -2.19; 5: -2.79

Give self-splicing fitness (ln) for all sequences that follow.
1. GCAUAGCAAUAUUACGAAGU
2. GUUAAGCAAUAUUACGGUUC

## Result
1: -3.88; 2: -1.6

Give self-splicing fitness (ln) for all sequences that follow.
1. GGCGAGCAAUAUUACGGUAU
2. ACCAAGCAAUAUUACGGGAA
3. GGAUAGCAAUAUUACGCGGG
4. AACGAGCAAUAUUACGCUUA
5. GUAGAGCAAUAUUACGCCCA
6. AUGCAGCAAUAUUACGAGCA

## Result
[-2.08, -2.85, -3.3, -2.86, -1.56, -0.52]

Give self-splicing fitness (ln) for all sequences that follow.
1. CAUUAGCAAUAUUACGCGCU
2. UAUGAGCAAUAUUACGUUCU
3. AUCCAGCAAUAUUACGGAUU

## Result
1: -2.9; 2: -3.57; 3: -3.25

Give self-splicing fitness (ln) for all sequences that follow.
1. GCACAGCAAUAUUACGCGGU
2. GUCAAGCAAUAUUACGGAGA
3. UGAGAGCAAUAUUACGACAG
4. GUUUAGCAAUAUUACGGCAU

## Result
[-4.01, -3.61, -4.41, 0.0778]

Give self-splicing fitness (ln) for all sequences that follow.
1. UCACAGCAAUAUUACGCCGC
2. CUGCAGCAAUAUUACGCUAG

## Result
-3.57
-3.01

Give self-splicing fitness (ln) for all sequences that follow.
1. AUGAAGCAAUAUUACGUUGG
2. UAAGAGCAAUAUUACGAGAU
3. CGUGAGCAAUAUUACGGUCG
4. AUGCAGCAAUAUUACGCGAA
5. GCGUAGCAAUAUUACGGGCU

## Result
1. -2.72
2. -3.76
3. -1.17
4. -1.76
5. -3.57
